For each entry below, report its pKi value.
molecular target: Polycomb protein EED (Homo sapiens, UniProt O75530); test: Binding affinity to GST tagged EED (unknown origin) after 1 hr by OG(488) probe based TR-FRET assay
Sequence (O75530 whole entry, the tested form may be a part): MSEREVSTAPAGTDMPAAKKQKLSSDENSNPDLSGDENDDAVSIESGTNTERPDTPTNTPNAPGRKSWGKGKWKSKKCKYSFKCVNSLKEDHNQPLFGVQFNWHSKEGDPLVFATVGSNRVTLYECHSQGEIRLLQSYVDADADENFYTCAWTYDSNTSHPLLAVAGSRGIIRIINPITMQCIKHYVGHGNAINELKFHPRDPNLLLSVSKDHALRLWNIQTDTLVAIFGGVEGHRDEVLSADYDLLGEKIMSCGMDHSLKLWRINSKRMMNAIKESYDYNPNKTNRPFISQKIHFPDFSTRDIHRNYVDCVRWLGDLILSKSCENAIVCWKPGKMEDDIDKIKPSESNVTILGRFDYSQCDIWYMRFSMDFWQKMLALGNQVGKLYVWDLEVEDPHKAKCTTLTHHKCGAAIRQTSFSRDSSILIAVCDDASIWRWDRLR
As a rule, pKi stands for the negative log10 of the concentration, concentration in M.

Exercise: Query: pKi; subject: c1ccc2c(c1)CCN(c1ccncc1)C2
Solution: 6.02

Exercise: Query: pKi; subject: COc1ccc([C@H]2CN(Cc3c(C)cccc3F)C[C@@H]2N(C)C)cc1OC
Solution: 7.92

Exercise: Query: pKi; subject: CC(=O)N1CCN(c2ccc([C@@H]3CN([C@H]4CCc5cccc(F)c54)C[C@H]3N(C)C)cc2)CC1
Solution: 7.38

Exercise: Query: pKi; subject: COc1ccc([C@H]2CN(C3CCc4cccc(F)c43)C[C@@H]2N(C)C)cc1OC (some centres undefined)
Solution: 8.52

Exercise: Query: pKi; subject: Cc1cccc(F)c1CN1C[C@H](c2ccc(S(C)(=O)=O)cc2)[C@@H](N(C)C)C1
Solution: 8.00

Exercise: Query: pKi; subject: Cc1cccc(F)c1CN1C[C@@H](N(C)C)[C@H](c2ccc(S(C)(=O)=O)cc2)C1
Solution: 6.54

Exercise: Query: pKi; subject: CC(=O)N1CCN(c2ccc([C@H]3CN(C4CCc5cccc(F)c54)C[C@@H]3N(C)C)cc2)CC1 (some centres undefined)
Solution: 9.15

Exercise: Query: pKi; subject: CC(=O)N1CCN(c2ccc([C@H]3CN([C@H]4CCc5cccc(F)c54)C[C@@H]3N(C)C)cc2)CC1
Solution: 9.52

Exercise: Query: pKi; subject: CN(C)c1cc(N2CCc3ccccc3C2)ccn1
Solution: 6.17

Exercise: Query: pKi; subject: COc1ccccc1N1CCN(C(=O)c2ccccc2S(C)(=O)=O)CC1
Solution: 5.82

Exercise: Query: pKi; subject: CN(C)[C@H]1CN(Cc2c(F)cc(O)cc2Br)C[C@@H]1c1cn(C)c2ccccc12
Solution: 8.10

Exercise: Query: pKi; subject: CC(=O)N1CCN(c2ccc([C@H]3CN(Cc4c(C)cccc4F)C[C@@H]3N(C)C)cc2)CC1
Solution: 8.52

Exercise: Query: pKi; subject: CN(C)[C@H]1CN(Cc2c(F)cccc2Br)C[C@@H]1c1ccccc1
Solution: 6.96

Exercise: Query: pKi; subject: CN(C)[C@H]1CN(Cc2c(F)cccc2Br)C[C@@H]1c1ccccn1
Solution: 6.35

---

biological target: Polycomb protein EED (Homo sapiens, UniProt O75530); test: Binding affinity to biotin labelled human EED (78 to 441 residues) by SPR assay
readout: Kd

Exercise: Kindly state the measured Kd obtained for CN(C)[C@@H]1CN(Cc2c(F)cccc2Br)C[C@H]1c1cn(C)c2ccccc12 with Polycomb protein EED (Homo sapiens, UniProt O75530).
Solution: 3.1 µM

Exercise: Kindly state the measured Kd obtained for Cc1cccc(F)c1CN1C[C@@H](N(C)C)[C@H](c2ccc(S(C)(=O)=O)cc2)C1 with Polycomb protein EED (Homo sapiens, UniProt O75530).
Solution: 1.4 µM

Exercise: Kindly state the measured Kd obtained for Cc1cccc(F)c1CN1C[C@H](c2ccc(S(C)(=O)=O)cc2)[C@@H](N(C)C)C1 with Polycomb protein EED (Homo sapiens, UniProt O75530).
Solution: 0.14 µM

Exercise: Kindly state the measured Kd obtained for CN(C)[C@H]1CN(Cc2c(F)cccc2Br)C[C@@H]1c1cn(C)c2ccccc12 with Polycomb protein EED (Homo sapiens, UniProt O75530).
Solution: 0.15 to 0.31 µM

Exercise: Kindly state the measured Kd obtained for CN(C)[C@H]1CN(Cc2c(F)cccc2Br)C[C@@H]1c1ccc(O)cc1 with Polycomb protein EED (Homo sapiens, UniProt O75530).
Solution: 2.6 µM
